Assay: Acute toxicity, LD50/24 hrs, intravenous, derivatives of formula (IV)
Conditions: mouse, in vivo, mice, read-out: LD50/24 hrs/kg body weight
From the text: It concerned the acute toxicity, the subacute toxicity, the chronic toxicity, the tolerance and the teratology of said derivatives.
Response field label: string, one of 1 (yes) (LD50 at 24 h strictly below 20 mg/kg) or 0 (no).

COc1ccc(C(=O)C[n+]2ccc3sccc3c2)cc1.[Br-] : 0 (no)
COc1cccc(C(=O)C[n+]2ccc3sccc3c2)c1.[Br-] : 1 (yes)

stdin: API: query returns whether the molecule falls strictly under 20 mg/kg in LD50 at 24 h. Query: `O=C(C[n+]1ccc2sccc2c1)c1ccccc1.[Br-]`
stdout: 1 (yes)

stdin: API: query returns whether the molecule falls strictly under 20 mg/kg in LD50 at 24 h. Query: `COc1ccccc1C(=O)C[n+]1ccc2sccc2c1`
stdout: 1 (yes)
